The entries below are paired with their reported TGI.
- Tested on: SF-539 CNS
- Method Summary: NCI tumour cell line growth inhibition, 48 h

Examples with their reported TGI follow.
[
  {
    "Compound": "COc1cc(CNC(=O)CCCCCCCCCCSSCCCCCCCCCCC(=O)NCc2ccc(O)c(OC)c2)ccc1O",
    "TGI": "> 10 µM"
  },
  {
    "Compound": "CC(=O)O[C@@H]1CC(=O)O[C@@H]2C[C@@H](CC/C(Cl)=C/C/C=C\\1C)O[C@@H]2CO",
    "TGI": "> 25 µM"
  },
  {
    "Compound": "Cn1c(-c2ccccc2)c/c(=N\\NS(C)(=O)=O)c2cc(S(=O)(=O)O)ccc21",
    "TGI": "> 100 µM"
  }
]

Q: Requested read-out: TGI. Entry: COc1ccc(C2S/C(=C\c3cccc([N+](=O)[O-])c3)C(=O)N2NC(=O)Cc2ccccc2)cc1 (stereo not drawn)
Ans: > 100 µM
